biological target: Neuronal acetylcholine receptor; alpha4/beta2 (Rattus norvegicus, UniProt P09483+P12390); test: Displacement of [3H]epibatidine from rat recombinant alpha4beta2 nAChR expressed in HEK293 cells
Sequence (P09483 whole entry): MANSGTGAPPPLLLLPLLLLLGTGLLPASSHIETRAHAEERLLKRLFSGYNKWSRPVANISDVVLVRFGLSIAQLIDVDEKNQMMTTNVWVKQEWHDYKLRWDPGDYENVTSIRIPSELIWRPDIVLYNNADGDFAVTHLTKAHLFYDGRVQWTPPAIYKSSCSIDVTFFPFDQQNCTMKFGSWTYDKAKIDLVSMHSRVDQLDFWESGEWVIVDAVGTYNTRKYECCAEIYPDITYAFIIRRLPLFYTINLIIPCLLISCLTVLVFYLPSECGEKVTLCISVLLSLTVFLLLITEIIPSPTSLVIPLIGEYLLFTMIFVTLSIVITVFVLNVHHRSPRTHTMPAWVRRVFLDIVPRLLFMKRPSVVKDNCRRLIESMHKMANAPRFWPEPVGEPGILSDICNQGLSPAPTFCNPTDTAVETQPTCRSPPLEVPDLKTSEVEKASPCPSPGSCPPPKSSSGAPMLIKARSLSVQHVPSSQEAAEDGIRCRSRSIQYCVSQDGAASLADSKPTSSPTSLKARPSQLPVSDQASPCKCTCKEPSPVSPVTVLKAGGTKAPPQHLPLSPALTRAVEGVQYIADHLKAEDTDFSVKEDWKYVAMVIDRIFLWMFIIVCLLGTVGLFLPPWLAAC
Sequence (P12390 whole entry): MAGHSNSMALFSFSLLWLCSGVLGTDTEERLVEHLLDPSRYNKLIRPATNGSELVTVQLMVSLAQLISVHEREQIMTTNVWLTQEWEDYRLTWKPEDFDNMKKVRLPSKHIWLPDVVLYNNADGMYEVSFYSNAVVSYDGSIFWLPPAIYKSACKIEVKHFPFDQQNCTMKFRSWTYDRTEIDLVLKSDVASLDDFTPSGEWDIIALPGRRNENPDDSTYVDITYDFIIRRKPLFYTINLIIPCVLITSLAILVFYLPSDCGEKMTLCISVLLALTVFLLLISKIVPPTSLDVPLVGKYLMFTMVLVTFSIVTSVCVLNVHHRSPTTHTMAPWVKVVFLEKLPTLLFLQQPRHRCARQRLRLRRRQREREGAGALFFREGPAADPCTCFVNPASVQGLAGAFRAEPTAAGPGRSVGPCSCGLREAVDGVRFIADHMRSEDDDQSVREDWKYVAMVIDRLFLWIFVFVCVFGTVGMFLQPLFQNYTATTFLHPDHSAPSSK
Give Ki for every item shown.
I only need the number, in µM, no unit after it.

IN: Provide measured Ki value, entry: CC(CCOC(=O)N1CCC1(C)C)N(C)C (stereo not drawn)
OUT: 0.21

IN: Provide measured Ki value, entry: CC(CCOC(=O)N1CCCCC1)N(C)C (stereo not drawn)
OUT: 0.091

IN: Provide measured Ki value, entry: CC(CCOC(=O)C1CC1)N(C)C (stereo not drawn)
OUT: 0.0038

====

biological target: Neuronal acetylcholine receptor; alpha3/beta4 (Rattus norvegicus, UniProt P04757+P12392); experiment: Displacement of [3H]epibatidine from rat recombinant alpha-3-beta-4 nAChR expressed in HEK293 cells; assay type: cell-based
Sequence (P04757 whole entry): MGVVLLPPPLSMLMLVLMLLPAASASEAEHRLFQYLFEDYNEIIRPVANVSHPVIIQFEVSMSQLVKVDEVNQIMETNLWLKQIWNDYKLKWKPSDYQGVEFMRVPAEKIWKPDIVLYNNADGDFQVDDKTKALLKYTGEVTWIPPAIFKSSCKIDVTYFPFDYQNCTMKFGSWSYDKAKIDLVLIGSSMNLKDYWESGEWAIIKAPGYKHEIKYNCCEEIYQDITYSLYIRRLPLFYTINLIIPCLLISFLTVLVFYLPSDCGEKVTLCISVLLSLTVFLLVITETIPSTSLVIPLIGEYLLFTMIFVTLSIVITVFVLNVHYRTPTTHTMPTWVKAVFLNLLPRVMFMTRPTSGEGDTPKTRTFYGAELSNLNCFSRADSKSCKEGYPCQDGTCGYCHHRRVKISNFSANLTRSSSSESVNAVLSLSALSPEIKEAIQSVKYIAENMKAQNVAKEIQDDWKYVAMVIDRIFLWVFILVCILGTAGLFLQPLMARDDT
Sequence (P12392 whole entry): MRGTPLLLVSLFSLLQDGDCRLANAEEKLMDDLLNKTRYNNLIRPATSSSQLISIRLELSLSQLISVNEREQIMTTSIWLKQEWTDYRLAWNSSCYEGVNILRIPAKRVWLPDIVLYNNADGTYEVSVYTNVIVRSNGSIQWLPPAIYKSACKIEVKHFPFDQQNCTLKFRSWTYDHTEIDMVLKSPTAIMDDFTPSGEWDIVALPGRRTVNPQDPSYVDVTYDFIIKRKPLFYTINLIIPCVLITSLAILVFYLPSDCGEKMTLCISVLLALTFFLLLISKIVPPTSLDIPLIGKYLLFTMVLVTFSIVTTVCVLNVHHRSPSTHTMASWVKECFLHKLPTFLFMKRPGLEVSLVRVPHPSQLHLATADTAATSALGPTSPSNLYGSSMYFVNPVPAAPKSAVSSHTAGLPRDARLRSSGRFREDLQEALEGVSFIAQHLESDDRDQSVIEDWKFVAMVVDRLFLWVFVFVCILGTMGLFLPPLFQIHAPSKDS
Hi! Could you tag entries with Ki below 20 µM as yes (1), and those at or above as no (0)? Much appreciated.

IN: Problem: For the molecule CC(CCOC(=O)C1CCC1)N(C)C (stereo unspecified) , is Ki under 20 µM?
OUT: yes (1)

IN: Problem: For the molecule CC(CCOC(=O)c1ccccc1)N(C)C (stereo unspecified) , is Ki under 20 µM?
OUT: no (0)

IN: Problem: For the molecule CC(CCOC(=O)N(C)C)N(C)C (stereo unspecified) , is Ki under 20 µM?
OUT: yes (1)

IN: Problem: For the molecule CC(CCOC(=O)n1cccc1)N(C)C (stereo unspecified) , is Ki under 20 µM?
OUT: no (0)

IN: Problem: For the molecule `CC1CN(C(=O)OCC[C@H](C)N(C)C)C1` , is Ki under 20 µM?
OUT: no (0)

IN: Problem: For the molecule CC(CCOC(=O)C1CC1)N(C)C (stereo unspecified) , is Ki under 20 µM?
OUT: yes (1)

IN: Problem: For the molecule CC1CN(C(=O)OCCC(C)N(C)C)C1 (stereo unspecified) , is Ki under 20 µM?
OUT: no (0)

IN: Problem: For the molecule CC(CCOC(=O)N1CCC1(C)C)N(C)C (stereo unspecified) , is Ki under 20 µM?
OUT: no (0)

IN: Problem: For the molecule `CC1CN(C(=O)OCC[C@@H](C)N(C)C)C1` , is Ki under 20 µM?
OUT: yes (1)

IN: Problem: For the molecule CC(=O)OCCC(C)N(C)C (stereo unspecified) , is Ki under 20 µM?
OUT: yes (1)

IN: Problem: For the molecule CC(C)C(=O)OCCC(C)N(C)C (stereo unspecified) , is Ki under 20 µM?
OUT: yes (1)

IN: Problem: For the molecule CC(CCOC(=O)N1CCCCC1)N(C)C (stereo unspecified) , is Ki under 20 µM?
OUT: yes (1)

IN: Problem: For the molecule CC(CCOC(=O)N1CCCC1)N(C)C (stereo unspecified) , is Ki under 20 µM?
OUT: no (0)

IN: Problem: For the molecule CC(CCOC(=O)N1CCC1C)N(C)C (stereo unspecified) , is Ki under 20 µM?
OUT: yes (1)

IN: Problem: For the molecule CC(CCOC(=O)N1CCC1)N(C)C (stereo unspecified) , is Ki under 20 µM?
OUT: yes (1)

IN: Problem: For the molecule CC(CCOC(=O)N1CC(C)(C)C1)N(C)C (stereo unspecified) , is Ki under 20 µM?
OUT: no (0)
